// data source = paper PMC6017250

target-of-assay: Sortase B (SrtBΔ30) (Staphylococcus aureus, UniProt Q2FZE3, I182A)
Construct: SrtBΔ30
Sequence (Q2FZE3 31-244 I182A): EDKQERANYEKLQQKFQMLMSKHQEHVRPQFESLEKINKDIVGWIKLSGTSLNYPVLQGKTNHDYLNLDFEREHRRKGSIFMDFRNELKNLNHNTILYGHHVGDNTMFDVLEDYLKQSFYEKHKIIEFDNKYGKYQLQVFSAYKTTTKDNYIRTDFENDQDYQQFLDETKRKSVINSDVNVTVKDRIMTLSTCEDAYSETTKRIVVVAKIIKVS
protocol-notes: fluorescence spectroscopy quenching (association constant KA)
pKd: −log10 of the molar value.

# structure-as-smiles, pKd
data = [
    ("c1c2c(cc3c1OCO3)-c1cc3ccc4c(c3c[n+]1CC2)OCO4", 4.89),
]

###

target-of-assay: Sortase B (SrtBΔ30) (Staphylococcus aureus, UniProt Q2FZE3, R115A)
Construct: SrtBΔ30
protocol-notes: fluorescence spectroscopy quenching (association constant KA)
pKd: −log10 of the molar value.
measured-metric: pKd

# molecule, result
rows = [
    ("c1c2c(cc3c1OCO3)-c1cc3ccc4c(c3c[n+]1CC2)OCO4 [coptisine]", 4.92),
]
